B1: HDV Ribozyme (parent)
chain: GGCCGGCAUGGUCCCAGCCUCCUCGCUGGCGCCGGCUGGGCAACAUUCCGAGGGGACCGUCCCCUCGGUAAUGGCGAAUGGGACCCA

# Variants of: B1
# Test: self-cleavage, relative activity (ratio to wild type); higher = more cleavage; co-transcriptional
Returns one of true or false; true when self-cleavage is >= 0.9.

Exercise: Check if self-cleavage >= 0.9 (inclusive). Item: A16C G68U
Key: false

Exercise: Does self-cleavage meet or surpass 0.9 for U37G C44U ?
Key: false

Exercise: Say whether A8U G28A shows self-cleavage of 0.9 or more.
Key: false

Exercise: Dear colleague, could you confirm whether G59A A87U has self-cleavage at or above 0.9?
Key: true

Exercise: Is reported self-cleavage greater than or equal to 0.9 here: C33U C49G
Key: false

Exercise: For this variant, is measured self-cleavage 0.9 or higher? C61A C85A
Key: true

Exercise: Form field: self-cleavage at least 0.9? Entry: C66A G76A
Key: true

Exercise: For this variant, is measured self-cleavage 0.9 or higher? U20G A70U
Key: false

Exercise: Is reported self-cleavage greater than or equal to 0.9 here: C13A C21G
Key: false
